GI50 values by entry
System: LOX IMVI
Assay: NCI tumour cell line growth inhibition, 48 h
Calls of active or inactive are those of the source. Cut-off read from the data, not from the text of the source: active = GI50 up to about 1.1 µM and inactive = higher.
RECORDED_ENDPOINT: GI50

# COMPOUND, TARGET_OR_SYSTEM, RECORDED_ENDPOINT, REPORTED_RESULT
rows = [
    ("C[C@]12Cc3conc3C(O)=C1CC[C@@H]1C2CC[C@@]2(C)C1CC[C@@H]2O (stereo partly specified)", "LOX IMVI", "GI50", "4.5 µM (inactive)"),
    ("COc1cc(OC)c(OC)cc1/C=C1\\C=Cc2ccccc21", "LOX IMVI", "GI50", "13 µM (inactive)"),
    ("CC1(C)N=c2[nH]cnc2=C(C(N)=O)N1", "LOX IMVI", "GI50", "> 100 µM (inactive)"),
    ("O=C(O)C12C3C4C1C1C2C3C1(Br)C41OCCO1 (stereo unspecified)", "LOX IMVI", "GI50", "> 100 µM (inactive)"),
    ("CC(C)(C)C(=O)Nc1cccc(-c2ccc[nH]2)n1", "LOX IMVI", "GI50", "> 100 µM (inactive)"),
    ("CO/[N+]([O-])=C\\C(=O)N/C=C/C(=O)O", "LOX IMVI", "GI50", "> 100 µM (inactive)"),
]

----------
Test system: NCI-H23
Test: NCI tumour cell line growth inhibition, 48 h
Active and inactive are the calls of the source. Cut-off read from the data, not from the text of the source: active = GI50 up to about 1.1 µM and inactive = higher.
# GI50 listing for each entry below

# COMPOUND, GI50
data = [
    ("CN1CCN(C(=S)N(C(=O)c2ccc(Cl)cc2)c2ccccc2)CC1", "> 100 µM (inactive)"),
    ("COC(=O)[C@@]1(C)/C(=N/NS(=O)(=O)c2ccc(C)cc2)CCC[C@@H]1C", "> 100 µM (inactive)"),
    ("CC(=O)Oc1ccc2c(=O)c(C(C)=O)coc2c1", "> 100 µM (inactive)"),
    ("COc1ccc(-n2cnc3c2=NC(C)(C)NC=3C(N)=O)c(OC)c1", "> 100 µM (inactive)"),
    ("COC(=O)Nc1nc2cc(NS(=O)(=O)c3ccc(Cl)cc3)ccc2[nH]1", "9.93 µM (inactive)"),
    ("COC1(C)CP(=O)(OC(C)C)CC(C)=C1Cl (stereo unspecified)", "10.7 µM (inactive)"),
    ("COc1cc(OCc2ccc3oc(=O)c(-c4ccccc4)nc3c2)cc(OC)c1OC", "> 100 µM (inactive)"),
    ("O=C(CCC(=O)Nc1ccc(Cl)c(Cl)c1)Cc1nc2ccccc2o1", "> 100 µM (inactive)"),
    ("O=C(CN1CCOCC1)Nc1nc(-c2ccc(Cl)cc2)cs1", "15.1 µM (inactive)"),
    ("CCCCCCCCCCCC1=NCCN1", "93.8 µM (inactive)"),
    ("COc1cc(S(=O)(=O)Nc2nc(-c3ccc(N4C(=O)CSC4c4cccs4)cc3)cs2)ccc1Cl (stereo unspecified)", "33.2 µM (inactive)"),
]

----------
Test system: A549
Assay: NCI tumour cell line growth inhibition, 48 h
Active and inactive are the calls of the source. Rule as the data show it: active = GI50 up to about 1.1 µM and inactive = higher.
Outcome codes: active, inactive

# MOLECULE, CLASS_ASSIGNMENT
data = [
    ("Oc1ccc(Cl)cc1C1=NC(NCNC2=NC(c3ccccc3)CC(c3cc(Cl)ccc3O)=N2)=NC(c2ccccc2)C1 (stereo not drawn)", "inactive"),
    ("O=C(O)CCC1(Br)CCCCC(Br)C1=O (stereo not drawn)", "inactive"),
    ("CC(C)C(Nc1c2ccccc2[n+](C)c2ccccc12)C(=O)O (stereo not drawn)", "inactive"),
    ("NC1CCCCC1.O=P(O)(O)C(O)/C=C/c1ccccc1 (stereo not drawn)", "inactive"),
    ("COc1ccc(-c2nc3ncccn3c2-c2ccc(S(C)(=O)=O)cc2)cc1", "inactive"),
    ("O=C(O)COc1cc(-c2ccccc2)nc2ccccc12", "inactive"),
    ("O=C(CCC(=O)Nc1ccc(Cl)c(Cl)c1)Cc1nc2ccccc2o1", "inactive"),
    ("CCc1nc(N)nc(C(=O)NCCNC(=O)c2nc(N)nc(CC)c2C)c1C", "inactive"),
    ("C=COCCCOc1ccccc1", "inactive"),
    ("CC1(C)OCC(C2CCC3(C)C4=CCC5C(C)(C)C(O)CCC5(C)C4CCC23C)CC(O)C1O (stereo not drawn)", "inactive"),
    ("c1ccc2c(c1)SC1=C(SC(=C3SC4=C(S3)Sc3ccccc3S4)S1)S2", "inactive"),
    ("O=C1NC(N2CCCC(CO)C2)=N/C1=C\\c1ccc(Cl)cc1 (stereo not drawn)", "inactive"),
    ("CCOP(=O)(OCC)C1CC(n2cc(C)c(=O)[nH]c2=O)OC1CO (stereo not drawn)", "inactive"),
    ("N=C(N)N/N=C/c1c(-c2ccc(Cl)cc2)nc2sc(Cl)cn12", "inactive"),
    ("CCOC(=O)/C=C(\\C(=O)OCC)n1cc(Cl)c(=O)n(CC(=O)OCC)c1=O", "inactive"),
    ("CCC(O)C1Cc2c(C)cc3c(c2O1)C(=O)c1ccccc1C3=O (stereo not drawn)", "inactive"),
    ("Cc1c(N2C(=O)C(Cl)C2c2ccc(Cl)cc2)c(=O)n(-c2ccccc2)n1C (stereo not drawn)", "inactive"),
    ("Cc1nc2c(n1-c1ccc(Br)cc1)C(=O)c1ccccc1C2=O", "inactive"),
    ("CCCCCCCCCCCCCCCCCCNc1ccn(C2OC(COP(=O)(O)OCC3OC(n4cc(F)c(=O)[nH]c4=O)CC3O)C(O)C2O)c(=O)n1 (stereo not drawn)", "active"),
    ("CCOC(=O)c1[nH]cc(C)c1-c1ccc2c(-c3ccccc3)nc3ccccc3n12", "inactive"),
    ("CCc1c(-c2ccccc2)[nH]c2ccccc2c1=O", "inactive"),
    ("COc1cccc2c1c1ccc3c(c1n2C)C(=O)C=CC3=O", "inactive"),
    ("C/C(CC(=O)Nc1ccc(Cl)cc1)=N\\NC(N)=S", "inactive"),
    ("Nc1c(C(=O)O)nnc2ccc(Cl)cc12", "inactive"),
    ("Cc1ccc(C(=O)Nc2ccc(CP(=O)(O)O)cc2CP(=O)(O)O)cc1N", "inactive"),
    ("CC(=O)Oc1cc2c(n(C)c1=O)CCC2", "inactive"),
    ("CO/C(=N\\N=C\\c1ccc(OC)c(OC)c1)c1ccncc1", "inactive"),
    ("C=CS(=O)(=O)CCN1CC1", "inactive"),
    ("CNC(=O)N(C)C(=O)c1ccccc1C(=O)N(C)C(=O)NC", "inactive"),
    ("CCOc1cc2ccc3c4cc(OC)c(OC)cc4cnc3c2cc1OCC", "inactive"),
    ("CCOC(=O)c1oc2c(OC)cc(Cl)c3c2c1CCC3", "inactive"),
    ("CC(=O)OC(CN1CCN(c2ccccn2)CC1)Cn1sc2nc(C)cc(C)c2c1=O (stereo not drawn)", "inactive"),
    ("C/N=C(\\N)c1ccc(NC(=N)c2ccc(C(=N)Nc3ccc(/C(N)=N/C)cc3)cc2)cc1", "inactive"),
    ("O=c1c2ccccc2nc(N/N=C/c2ccc(Cl)cc2)n1-c1ccccc1", "inactive"),
    ("O=S(=O)(O)c1ccc(/N=N/c2ccc3c(S(=O)(=O)O)cccc3c2O)c2ccccc12", "inactive"),
    ("COC(=O)C(C(=O)C(=O)Nc1ccc(C)cc1C)c1csc(-n2nc(-c3ccccc3)cc2-c2ccccc2)n1 (stereo not drawn)", "inactive"),
    ("O=C(NC1(C(=O)NNc2nnc(-c3ccccc3)c(-c3ccccc3)n2)C(c2ccccc2)C(c2ccccc2)=NN1c1ccccc1)c1ccccc1 (stereo not drawn)", "inactive"),
    ("CC(=O)N(C)c1ccc(/N=C/N(C)C)cc1", "inactive"),
    ("C/C(=N/NS(=O)(=O)c1ccc([N+](=O)[O-])cc1)c1cccc[n+]1[O-]", "inactive"),
    ("O=C1c2scc(-c3ccccc3)c2-n2cccc21", "inactive"),
    ("O=[N+]([O-])/C(C(Cl)=C(Cl)Cl)=C(/Nc1cccc2cccnc12)n1nnc2ccccc21", "inactive"),
    ("CCCC[C@H](CCc1ccccc1)N(C(=O)OC)N1CCC[C@H]1COC", "inactive"),
    ("Cn1c2ccccc2c2c3c(c4c5ccccc5n(C5OC(CO)C(O)C(O)C5O)c4c21)C(=O)OC3=O (stereo not drawn)", "inactive"),
]
